tested system: T1, recombinant human IL-6 (human, UniProt P05231 30-212, labeled with radioactive iodine)
T1 construct: Labeled probe in solution, added to wells that carry the synthetic peptides; also called IL-6 ligand; Interleukin-6
experiment summary: radioiodinated IL-6 on peptide array
quantity name: Counts/minute bound (counts/minute)

[[record]]
binder = "AAGSHPSRWAGMGRRLLLRSA (alanine-scan variant of the domain I 21-mer) [Peptide A34]"
quantity_name = "Counts/minute bound"
unit_abbrev = "counts/minute"
test_value = 11800

[[record]]
binder = "PRSTPSLTTKAVLLVRKFANS (alanine-scan variant of the domain II 21-mer) [Peptide B36]"
quantity_name = "Counts/minute bound"
unit_abbrev = "counts/minute"
test_value = 10100

[[record]]
binder = "PRSTPSLTTKAVLLV [Peptide B7]"
quantity_name = "Counts/minute bound"
unit_abbrev = "counts/minute"
test_value = 3400

[[record]]
binder = "AAGSHPSRWAGM [Peptide A10]"
quantity_name = "Counts/minute bound"
unit_abbrev = "counts/minute"
test_value = 1440

[[record]]
binder = "FELRYRAERSKTFT [Peptide C24]"
quantity_name = "Counts/minute bound"
unit_abbrev = "counts/minute"
test_value = 5110

[[record]]
binder = "LTTKAVLLVRKFQNS [Peptide B23]"
quantity_name = "Counts/minute bound"
unit_abbrev = "counts/minute"
test_value = 12200

[[record]]
binder = "SSFYRLAFELRYRAERSKTFT (alanine-scan variant of the domain III 21-mer) [Peptide C47]"
quantity_name = "Counts/minute bound"
unit_abbrev = "counts/minute"
test_value = 9760

[[record]]
binder = "PRSTPSLTTKAVLLVRKFQN [Peptide B2]"
quantity_name = "Counts/minute bound"
unit_abbrev = "counts/minute"
test_value = 7930

[[record]]
binder = "GSHPSRWAGMGRRLLLRSV [Peptide A19]"
quantity_name = "Counts/minute bound"
unit_abbrev = "counts/minute"
test_value = 11000

[[record]]
binder = "SSFYRLRFELRYRA [Peptide C8]"
quantity_name = "Counts/minute bound"
unit_abbrev = "counts/minute"
test_value = 2510

[[record]]
binder = "AAGSHPSRAAGMGRRLLLRSV (alanine-scan variant of the domain I 21-mer) [Peptide A45]"
quantity_name = "Counts/minute bound"
unit_abbrev = "counts/minute"
test_value = 8040

[[record]]
binder = "PRSTPSLTTKAVLLVRKFQ [Peptide B3]"
quantity_name = "Counts/minute bound"
unit_abbrev = "counts/minute"
test_value = 7080

[[record]]
binder = "PRSTPSLTT [Peptide B13]"
quantity_name = "Counts/minute bound"
unit_abbrev = "counts/minute"
test_value = 1050

[[record]]
binder = "FYRLRFELRYRAERSKTFT [Peptide C19]"
quantity_name = "Counts/minute bound"
unit_abbrev = "counts/minute"
test_value = 10100

[[record]]
binder = "AAGSHPSRWAGMGR [Peptide A8]"
quantity_name = "Counts/minute bound"
unit_abbrev = "counts/minute"
test_value = 1480

[[record]]
binder = "SSFYRLRFEARYRAERSKTFT (alanine-scan variant of the domain III 21-mer) [Peptide C44]"
quantity_name = "Counts/minute bound"
unit_abbrev = "counts/minute"
test_value = 14100

[[record]]
binder = "SHPSRWAGMGRRLLLRSV [Peptide A20]"
quantity_name = "Counts/minute bound"
unit_abbrev = "counts/minute"
test_value = 12000

[[record]]
binder = "SSFYRLRFEL [Peptide C12]"
quantity_name = "Counts/minute bound"
unit_abbrev = "counts/minute"
test_value = 1030

[[record]]
binder = "GMGRRLLLRSV [Peptide A27]"
quantity_name = "Counts/minute bound"
unit_abbrev = "counts/minute"
test_value = 6820

[[record]]
binder = "SSFYRLRFELRYRAERSKTFA [Peptide C34]"
quantity_name = "Counts/minute bound"
unit_abbrev = "counts/minute"
test_value = 17000

[[record]]
binder = "RLRFELRYRAERSKTFT [Peptide C21]"
quantity_name = "Counts/minute bound"
unit_abbrev = "counts/minute"
test_value = 5990

[[record]]
binder = "PRSTPSLATKAVLLVRKFQNS (alanine-scan variant of the domain II 21-mer) [Peptide B46]"
quantity_name = "Counts/minute bound"
unit_abbrev = "counts/minute"
test_value = 7680

[[record]]
binder = "SSFYRLRFELRYRAERSKTAT (alanine-scan variant of the domain III 21-mer) [Peptide C35]"
quantity_name = "Counts/minute bound"
unit_abbrev = "counts/minute"
test_value = 14800

[[record]]
binder = "AAGSHPS (also called AAGSHPS) [Peptide A15]"
quantity_name = "Counts/minute bound"
unit_abbrev = "counts/minute"
test_value = 1320

[[record]]
binder = "PRSTPSLTTKAV [Peptide B10]"
quantity_name = "Counts/minute bound"
unit_abbrev = "counts/minute"
test_value = 1220

[[record]]
binder = "AAGSHPSRWAGMGRRLL [Peptide A5]"
quantity_name = "Counts/minute bound"
unit_abbrev = "counts/minute"
test_value = 2750

[[record]]
binder = "LLLRSV (also called LLLRSV) [Peptide A32]"
quantity_name = "Counts/minute bound"
unit_abbrev = "counts/minute"
test_value = 1600

[[record]]
binder = "AAGSHPSRWAGMGRRLLLRS [Peptide A2]"
quantity_name = "Counts/minute bound"
unit_abbrev = "counts/minute"
test_value = 9760

[[record]]
binder = "AAGSHPSRWAGMGRRLLLR [Peptide A3]"
quantity_name = "Counts/minute bound"
unit_abbrev = "counts/minute"
test_value = 8010

[[record]]
binder = "YRAERSKTFT [Peptide C28]"
quantity_name = "Counts/minute bound"
unit_abbrev = "counts/minute"
test_value = 2400

